- assay-target: EGFR wildtype, endogenous (Homo sapiens, UniProt P00533)
- Construct: A549 (EGFR wildtype, endogenous)
- Sequence (P00533 25-1210): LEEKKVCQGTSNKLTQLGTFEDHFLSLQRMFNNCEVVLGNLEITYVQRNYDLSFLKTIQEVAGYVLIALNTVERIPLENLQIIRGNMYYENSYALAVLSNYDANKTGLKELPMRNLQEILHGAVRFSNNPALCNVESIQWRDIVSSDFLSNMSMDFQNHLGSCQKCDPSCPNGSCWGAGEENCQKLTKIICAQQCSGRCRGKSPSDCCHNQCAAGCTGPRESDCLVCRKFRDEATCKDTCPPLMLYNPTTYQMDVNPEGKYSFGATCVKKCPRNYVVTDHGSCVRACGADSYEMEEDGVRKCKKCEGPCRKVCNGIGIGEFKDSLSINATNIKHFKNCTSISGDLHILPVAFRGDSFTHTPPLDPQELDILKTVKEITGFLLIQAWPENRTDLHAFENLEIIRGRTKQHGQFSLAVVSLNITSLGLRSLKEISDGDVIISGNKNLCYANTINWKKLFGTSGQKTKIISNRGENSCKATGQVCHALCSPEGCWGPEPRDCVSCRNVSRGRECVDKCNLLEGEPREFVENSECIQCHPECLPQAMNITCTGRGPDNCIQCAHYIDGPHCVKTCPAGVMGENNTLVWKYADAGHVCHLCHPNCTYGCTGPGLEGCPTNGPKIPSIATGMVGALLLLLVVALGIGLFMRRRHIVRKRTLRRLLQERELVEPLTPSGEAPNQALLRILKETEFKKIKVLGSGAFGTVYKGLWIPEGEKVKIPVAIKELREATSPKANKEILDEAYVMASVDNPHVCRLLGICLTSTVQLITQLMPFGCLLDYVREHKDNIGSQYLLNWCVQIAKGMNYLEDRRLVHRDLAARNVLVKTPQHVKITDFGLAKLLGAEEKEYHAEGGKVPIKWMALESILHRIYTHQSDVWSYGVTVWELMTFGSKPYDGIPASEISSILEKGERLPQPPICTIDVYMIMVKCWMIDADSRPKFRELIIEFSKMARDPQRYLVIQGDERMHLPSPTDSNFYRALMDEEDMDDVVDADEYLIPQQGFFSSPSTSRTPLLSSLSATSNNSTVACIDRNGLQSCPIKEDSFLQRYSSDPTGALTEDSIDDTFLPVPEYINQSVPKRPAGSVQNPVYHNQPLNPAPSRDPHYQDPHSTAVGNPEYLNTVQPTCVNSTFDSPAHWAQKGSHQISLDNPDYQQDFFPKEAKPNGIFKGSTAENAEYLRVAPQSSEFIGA
- test-protocol: pEGFR Y1068 ELISA assay, A549 cells
- test-conditions: full serum media, stimulated 10 min with EGF (40 ng/mL), read-out: pEGFRY1068 ELISAA549 IC50
pIC50: −log10 of the molar value.
pIC50 overview

C=CC(=O)N1CCO[C@@H](COc2nc(Nc3cnn(C)c3)nc3[nH]ccc23)C1 [Example 17]
< 5.00
C=CC(=O)Nc1cccc(Oc2nc(Nc3cc(COC)nn3C)nc3[nH]ccc23)c1 [Example 45]
< 5.00
C=CC(=O)N[C@H]1C[C@H](Nc2nc(Nc3cnn(C)c3)nc3[nH]ccc23)C1 [Example 6]
< 5.00
C=CC(=O)N[C@]1(C)C[C@@H](Oc2nc(Nc3cnn(C)c3)nc3[nH]cc(Cl)c23)C1 [Example 113]
< 5.00

Could you please provide reported pIC50 for C=CC(=O)Nc1cccc(Oc2nc(Nc3ccn(C)n3)nc3[nH]ccc23)c1F [Example 59] ? Thanks! < 5.10

Could you please provide reported pIC50 for C=CC(=O)N1CC(Nc2nc(Nc3cnn(C)c3)nc3[nH]cc(Cl)c23)C1 [Example 79] ? Thanks! < 5.00

Could you please provide reported pIC50 for C=CC(=O)N(C)[C@H]1C[C@H](Oc2nc(Nc3cn(C)nc3C#N)nc3[nH]cc(Cl)c23)C1 [Example 80] ? Thanks! < 5.00

---

pIC50 overview
- assay-target: EGFR wildtype, endogenous (Homo sapiens)
- Construct: A549 (EGFR wildtype, endogenous)
- test-protocol: pEGFR Y1068 ELISA assay, A549 cells;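 also: sandwich ELISA of phospho-EGFR Tyr1068 in cell lysates, cells exposed to compound for 2 h before EGF stimulation, 11-point threefold dilution series run in duplicate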
- test-conditions: full serum media, stimulated 10 min with EGF (40 ng/mL), read-out: pEGFRY1068 ELISAA549 IC50
pIC50: −log10 of the molar value.

C=CC(=O)N1CCc2c(Oc3nc(Nc4cnn(C)c4)nc4[nH]cc(C#N)c34)cccc21
< 5.00

Could you please provide reported pIC50 for C=CC(=O)N1C[C@H](Nc2nc(Nc3cnn(C)c3)nc3[nH]cc(Cl)c23)[C@H](n2ccnn2)C1 ? Thanks! < 5.00

Could you please provide reported pIC50 for C=CC(=O)N1C[C@H](COc2nc(Nc3cnn(C)c3)nc3[nH]cc(Cl)c23)[C@@H]([C@H](C)O)C1 (single isomer, unassigned) ? Thanks! < 5.00

Could you please provide reported pIC50 for C=CC(=O)N[C@H]1C[C@@H](Oc2nc(Nc3cnn(C)c3)nc3[nH]cc(C#N)c23)C1 (single isomer, unassigned) ? Thanks! < 5.00

Could you please provide reported pIC50 for C=CC(=O)N[C@H]1C[C@@](C)(Oc2nc(Nc3cnn(C)c3)nc3[nH]cc(Cl)c23)C1 ? Thanks! < 5.03
